Source listed as patent US20240391936A1.

pIC50, DDR1 (Homo sapiens, UniProt Q08345), per-entry values.
pIC50: −log10 of the molar value.

These recorded examples may help you get a feel for the data.
compound="CN(C)[C@@H]1CCN(Cc2cc(NC(=O)c3csc4c3CCN(Cc3cnc5[nH]ncc5c3)C4)cc(C(F)(F)F)c2)C1 [Example 158]" metric=pIC50 reported_result="> 7.60"
compound="CC(C)Cc1cc(NC(=O)c2csc3c2CCN(C(=O)c2cnc4ccccn24)C3)n(C)n1 [Example 43]" metric=pIC50 reported_result="7.30 to 7.60"
compound="O=C(Nc1cccc(C(F)(F)F)c1)c1csc2c1CCN(Cc1cnc3ccnn3c1)C2 [Example 88]" metric=pIC50 reported_result="> 7.60"

Okay, next one:
# lookup: pIC50 of O=C(Nc1cc(F)cc(C(F)(F)F)c1)c1csc2c1CCN(Cc1cnc3[nH]ccc3c1)C2 [Example 73]
> 7.60

====

assayed target: DDR2 (Homo sapiens)
assay details: DDR2 cell based assay (phospho-ELISA in HEK293T-DDR2 recombinant cells)
condition summary: bovine Type II Collagen 50 μg/ml
Readings of IC50 for the listed compounds

Consider the reported IC50 for these compounds:
compound="O=C(Nc1cc(F)cc(OC(F)(F)F)c1)c1csc2c1CCN(Cc1cnc3[nH]ncc3c1)C2 [Example 174]" reported_result="50 to 80 nM"
compound="CC1c2scc(C(=O)Nc3cccc(C(F)(F)F)c3)c2CCN1Cc1cnc2cnccn12 (stereo not shown) [Example 103]" reported_result="25 to 50 nM"
compound="CC(C)(C)c1cc(NC(=O)c2csc3c2CCN(Cc2cnc4[nH]ncc4c2)C3)no1 [Example 134]" reported_result="< 25 nM"
compound="N#Cc1cc(NC(=O)c2csc3c2CCN(C(=O)c2cnn4ccncc24)C3)cc(C(F)(F)F)c1 [Example 184]" reported_result="25 to 50 nM"
compound="O=C(Nc1ccc(OC2CCOC2)c(C(F)(F)F)c1)c1csc2c1CCN(C(=O)c1cnc3ccccn13)C2 (stereo not shown) [Example 12]" reported_result="< 25 nM"
compound="CN(C)[C@@H]1CCN(Cc2cc(NC(=O)c3csc4c3CCN(Cc3cnc5[nH]ncc5c3)C4)cc(C(F)(F)F)c2)C1 [Example 158]" reported_result="25 to 50 nM"

Please give the measured IC50 for this compound: CC1Cc2c(C(=O)Nc3cccc(C(F)(F)F)c3)csc2CN1Cc1cnc2cnccn12 (single isomer, unassigned) [Example 104]
50 to 80 nM

====

Listed compounds paired with reported pIC50
assayed target: DDR2 (Homo sapiens, UniProt Q16832)
Sequence (Q16832 22-855): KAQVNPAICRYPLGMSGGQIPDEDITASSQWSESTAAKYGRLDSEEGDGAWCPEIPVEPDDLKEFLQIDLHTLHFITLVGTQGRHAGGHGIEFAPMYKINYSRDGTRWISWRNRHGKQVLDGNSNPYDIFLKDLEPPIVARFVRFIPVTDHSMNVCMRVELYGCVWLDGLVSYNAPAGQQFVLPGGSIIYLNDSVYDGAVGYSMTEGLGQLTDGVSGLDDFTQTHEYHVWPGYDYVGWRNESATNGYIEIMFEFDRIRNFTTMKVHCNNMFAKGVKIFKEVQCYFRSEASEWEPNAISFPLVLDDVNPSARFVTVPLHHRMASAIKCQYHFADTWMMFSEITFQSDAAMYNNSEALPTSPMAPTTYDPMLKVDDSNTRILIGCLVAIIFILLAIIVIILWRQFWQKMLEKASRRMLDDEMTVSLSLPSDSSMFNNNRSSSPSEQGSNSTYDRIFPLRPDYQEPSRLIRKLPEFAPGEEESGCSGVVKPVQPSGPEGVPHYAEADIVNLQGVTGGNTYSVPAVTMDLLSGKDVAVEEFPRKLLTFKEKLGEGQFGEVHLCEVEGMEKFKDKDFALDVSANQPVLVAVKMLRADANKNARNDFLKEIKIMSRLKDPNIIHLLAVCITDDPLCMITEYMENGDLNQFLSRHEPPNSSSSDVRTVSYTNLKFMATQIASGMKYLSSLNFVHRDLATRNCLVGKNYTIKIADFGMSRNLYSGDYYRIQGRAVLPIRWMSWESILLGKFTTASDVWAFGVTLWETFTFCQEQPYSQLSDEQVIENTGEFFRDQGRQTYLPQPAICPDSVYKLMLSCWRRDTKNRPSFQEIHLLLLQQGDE
assay details: DDR2 cell based assay (phospho-ELISA in HEK293T-DDR2 recombinant cells)
condition summary: bovine Type II Collagen 50 μg/ml
Protocol: The inhibition of DDR2 phosphorylation by compounds was evaluated in HEK293T-DDR2 recombinant cells by phospho-ELISA assay. Briefly, HEK293T-DDR2 cells were seeded in poly-D-lysine-coated 24-well plates at a density of 250.000 cells/well and incubated for 1.5 hours at 37° C. and 5% CO2 in DMEM+10% FBS. […] Protein concentration in the samples was determined by BCA assay and the levels of phospho-DDR2 were determined following R&D Systems indications. […]
pIC50: −log10 of the molar value.

GET /values?readout=pIC50&system=DDR2 (Homo sapiens, UniProt Q16832)&item= Cc1ccc(-n2nc(C(C)(C)C)cc2NC(=O)c2csc3c2CCN(Cc2cnc4[nH]ncc4c2)C3)cc1 [Example 75]
> 7.60

# value lookup — system DDR2 (Homo sapiens, UniProt Q16832), readout pIC50, item O=C(Nc1cc(F)cc(C(F)(F)F)c1)c1csc2c1CCN(Cc1cnc3[nH]ccc3c1)C2 [Example 73]
> 7.60

# returns recorded pIC50 (system: DDR2 (Homo sapiens, UniProt Q16832)) for O=C(Nc1cncc(C(F)(F)F)c1)c1csc2c1CCN(Cc1cnc3ccnn3c1)C2 [Example 152]
> 7.60

Kindly state the measured pIC50 obtained for O=C(Nc1cccc(OC(F)(F)F)c1)c1csc2c1CCN(C(=O)c1cnc3ccccn13)C2 [Example 8] with DDR2 (Homo sapiens, UniProt Q16832).
> 7.60

pIC50 of O=C(Nc1cccc(OC(F)(F)F)c1)c1csc2c1CCN(Cc1cnc3[nH]ncc3c1)C2 [Example 66] on DDR2 (Homo sapiens, UniProt Q16832)?
> 7.60

Hi! What's the reported pIC50 for O=C(Nc1cncc(C(F)(F)F)c1)c1csc2c1CCN(C(=O)c1cnn3ccncc13)C2 [Example 108] on DDR2 (Homo sapiens, UniProt Q16832)?
7.30 to 7.60

Enter reported pIC50 observed with DDR2 (Homo sapiens, UniProt Q16832) for COc1ccc(NC(=O)c2csc3c2CCN(C(=O)c2cnc4ccccn24)C3)cc1C(F)(F)F [Example 4]
> 7.60

GET /values?readout=pIC50&system=DDR2 (Homo sapiens, UniProt Q16832)&item= O=C(Nc1cc(CN2CCOCC2)cc(C(F)(F)F)c1)c1csc2c1CCN(C(=O)c1cnc3ccccn13)C2 [Example 20]
> 7.60
